# Tested on: HEK-293T
# PROTOCOL_SUMMARY: Multiplex assay against HEK293T
# Assay type: toxicity, cell-based
# TEST_CONDITIONS: human, 24 h, 10 µM, compound concentration 10 uM, replicate 1
Label rule, in plain words: Population Healthy Nuclei (%) of 30% and up is TRUE, under 30% is FALSE.

molecule=Cc1nc(-c2ccc(-c3ccc(C(=O)N4CCc5cc6c(cc54)C4(CCN(C)CC4)CO6)cc3)c(C)c2)no1 assayed_target=HEK-293T discrete_label=FALSE
molecule=COc1ncc(-c2ccc3nccc(-c4ccnnc4)c3c2)cc1NS(=O)(=O)c1ccc(F)cc1F assayed_target=HEK-293T discrete_label=FALSE
molecule=CN1CCN(c2ccc(OC(F)(F)F)c(Nc3ncc4c(n3)-c3c(c(C(N)=O)nn3CCO)CC4)c2)CC1 assayed_target=HEK-293T discrete_label=TRUE
molecule="Cl.N#Cc1ccc2[nH]cc(CCCCN3CCN(c4ccc5oc(C(N)=O)cc5c4)CC3)c2c1 [VILAZODONE HYDROCHLORIDE]" assayed_target=HEK-293T discrete_label=FALSE
molecule="CN(C)C(=O)N[C@H]1CC[C@H](CCN2CCN(c3cccc(Cl)c3Cl)CC2)CC1.Cl [CARIPRAZINE HYDROCHLORIDE]" assayed_target=HEK-293T discrete_label=FALSE
molecule=C=CC(=O)Nc1cccc(C(=O)Nc2ccc(Nc3cc(-c4[nH]c(SC)nc4C)ccn3)cc2)c1 assayed_target=HEK-293T discrete_label=TRUE

Exercise: Threshold query (Population Healthy Nuclei (%) >= 30%) on CCN(CC)CCCCNc1ncc2cc(-c3cc(OC)cc(OC)c3)c(NC(=O)NC(C)(C)C)nc2n1
Solution: TRUE

Exercise: Threshold query (Population Healthy Nuclei (%) >= 30%) on Cc1csc2c(N[C@@H](C)CN3CCN(S(=O)(=O)c4ccc(Cl)c(Cl)c4)CC3)ncnc12
Solution: FALSE

Exercise: Threshold query (Population Healthy Nuclei (%) >= 30%) on CNc1nc(NCc2ccc(NS(C)(=O)=O)cc2Cl)cc(-c2ccccn2)n1
Solution: FALSE

Exercise: Threshold query (Population Healthy Nuclei (%) >= 30%) on CN1CCC[C@@H]1CCO[C@](C)(c1ccccc1)c1ccc(Cl)cc1.O=C(O)/C=C/C(=O)O [CLEMASTINE FUMARATE]
Solution: FALSE

Exercise: Threshold query (Population Healthy Nuclei (%) >= 30%) on Cc1cc(C)cc(-c2cnc3cc(Cl)c(-c4cccc(O)c4)cc3c2OCCCN)c1
Solution: FALSE

Exercise: Threshold query (Population Healthy Nuclei (%) >= 30%) on COc1cc(-n2cnc3cc(-c4ccc(Cl)cc4)sc3c2=O)ccc1OCCN1CCCC1
Solution: FALSE

Exercise: Threshold query (Population Healthy Nuclei (%) >= 30%) on Cc1nc(-c2cn3c(n2)-c2ccc(-c4cnn(C(C)(C)C(N)=O)c4)cc2OCC3)n(C(C)C)n1
Solution: TRUE

Exercise: Threshold query (Population Healthy Nuclei (%) >= 30%) on OC1(c2ccc(Cl)cc2)CCN(Cc2c[nH]c3ccccc23)CC1
Solution: FALSE

Exercise: Threshold query (Population Healthy Nuclei (%) >= 30%) on CC(C)NCC(O)COc1ccc(CCOCC2CC2)cc1.Cl (stereo unspecified) [BETAXOLOL HYDROCHLORIDE]
Solution: TRUE
